Parameter: MIC P. aeruginosa. Scope: all listed entries.
test system: Pseudomonas aeruginosa ATCC 27853; assay: MIC, NCCLS M7-A6 broth microdilution (Table 9, no superscript); format: cell-based; details: ATCC 27853
Non-standard residues stand in square brackets, D forms with d. Residues, ends and D or L forms follow the SMILES beside them. *: point of attachment. Lauroyl = CCCCCCCCCCCC(=O)*; Decanoyl = CCCCCCCCCC(=O)*
outcome-measure: MIC P. aeruginosa (µg/mL)

1. CCCCCCCCCCCC(=O)N[C@H](CCCNC(=N)N)C(=O)N[C@H](CC(=O)O)C(=O)N[C@@H](C(=O)N[C@H](C)C(=O)N[C@H](CCCNC(=N)N)C(=O)N[C@H](CC(N)=O)C(=O)N[C@H](Cc1ccccc1)C(=O)N[C@H](CCSC)C(=O)N[C@H](CCCNC(=N)N)C(N)=O)C(C)C [Peptide 128, Lauryl-rdvarnfmr-NH2] (Lauroyl-[dR][dD][dV][dA][dR][dN][dF][dM][dR]-NH2): 32
2. CCCCCCCCCC(=O)NCCCC[C@H](NC(=O)[C@H](CCCNC(=N)N)NC(=O)[C@H](CCSC)NC(=O)[C@H](Cc1ccccc1)NC(=O)[C@H](CC(N)=O)NC(=O)[C@H](CCCNC(=N)N)NC(=O)[C@H](C)NC(=O)[C@@H](NC(=O)[C@H](CC(=O)O)NC(=O)[C@H](CCCNC(=N)N)NC(=O)[C@H](Cc1c[nH]c2ccccc12)NC(=O)[C@H](CCCNC(=N)N)NC(=O)[C@H](CO)NC(=O)[C@@H](N)CCCNC(=N)N)C(C)C)C(N)=O [Peptide 185, H2N-RSRWRDVARNFMRK(Decanyl)-NH2] (H-RSRWRDVARNFMRK(Decanoyl)-NH2): 16
3. CCCCCCCCCCCC(=O)N[C@H](CCCNC(=N)N)C(=O)N[C@H](CO)C(=O)N[C@H](C)C(=O)N[C@H](Cc1c[nH]c2ccccc12)C(=O)N[C@H](CCCNC(=N)N)C(=O)N[C@H](CC(=O)O)C(=O)N[C@@H](C(=O)N[C@H](C)C(=O)N[C@H](CCCNC(=N)N)C(=O)N[C@H](CC(N)=O)C(=O)N[C@H](Cc1ccccc1)C(=O)N[C@H](CCSC)C(=O)N[C@H](CCCNC(=N)N)C(N)=O)C(C)C [Peptide 238, Lauryl-rsawrdvarnfmr-NH2] (Lauroyl-[dR][dS][dA][dW][dR][dD][dV][dA][dR][dN][dF][dM][dR]-NH2): 64

###

system: Pseudomonas aeruginosa ATCC 27853; assay: MIC, NCCLS M7-A6 broth microdilution (Table 9, no superscript); assay type: cell-based; details: ATCC 27853
Non-standard residues stand in square brackets, D forms with d. Residues, ends and D or L forms follow the SMILES beside them. *: point of attachment. 1Nal = N[C@@H](Cc1cccc2ccccc12)C(=O)O; Lauroyl = CCCCCCCCCCCC(=O)*; Decanoyl = CCCCCCCCCC(=O)*; Hexanoyl = CCCCCC(=O)*
Parameter: MIC P. aeruginosa. Scope: all listed entries.
outcome-measure: MIC P. aeruginosa

1) CCCCCCCCCCCC(=O)N[C@@H](CCCNC(=N)N)C(=O)N[C@@H](CO)C(=O)N[C@@H](CCCNC(=N)N)C(=O)N[C@@H](Cc1cccc2ccccc12)C(=O)N[C@@H](CCCNC(=N)N)C(=O)N[C@@H](CC(=O)O)C(=O)N[C@H](C(=O)N[C@@H](C)C(=O)N[C@@H](CCCNC(=N)N)C(=O)N[C@@H](CC(N)=O)C(=O)N[C@@H](Cc1ccccc1)C(=O)N[C@@H](CCSC)C(=O)N[C@@H](CCCNC(=N)N)C(N)=O)C(C)C [Peptide 149] (Lauroyl-RSR[1Nal]RDVARNFMR-NH2): >64 µg/mL
2) CCCCCCCCCC(=O)NCCCC[C@H](NC(=O)[C@H](CCCNC(=N)N)NC(=O)[C@H](CC(C)C)NC(=O)[C@H](Cc1ccccc1)NC(=O)[C@H](CC(N)=O)NC(=O)[C@H](CCCNC(=N)N)NC(=O)[C@H](C)NC(=O)[C@@H](NC(=O)[C@H](CC(=O)O)NC(=O)[C@H](CCCNC(=N)N)NC(=O)[C@H](Cc1c[nH]c2ccccc12)NC(=O)[C@H](CCCNC(=N)N)NC(=O)[C@H](CO)NC(=O)[C@@H](N)CCCNC(=N)N)C(C)C)C(N)=O [Peptide 180, H2N-RSRWRDVARNFLRK(Decanyl)-NH2] (H-RSRWRDVARNFLRK(Decanoyl)-NH2): 4 µg/mL
3) CCCCCC(=O)N[C@H](CCCNC(=N)N)C(=O)N[C@H](CO)C(=O)N[C@H](CCCNC(=N)N)C(=O)N[C@H](Cc1c[nH]c2ccccc12)C(=O)N[C@H](CCCNC(=N)N)C(=O)N[C@H](CC(=O)O)C(=O)N[C@@H](C(=O)N[C@H](C)C(=O)N[C@H](CCCNC(=N)N)C(=O)N[C@H](CC(N)=O)C(=O)N[C@H](Cc1ccccc1)C(=O)N[C@H](CC(C)C)C(=O)N[C@H](CCCNC(=N)N)C(N)=O)C(C)C [Peptide 188, Hexyl-rsrwrdvarnflr-NH2] (Hexanoyl-[dR][dS][dR][dW][dR][dD][dV][dA][dR][dN][dF][dL][dR]-NH2): >64 µg/mL
4) CCCCCCCCCCCC(=O)N[C@@H](CCCNC(=N)N)C(=O)N[C@@H](CO)C(=O)N[C@@H](CCCNC(=N)N)C(=O)N[C@@H](Cc1c[nH]c2ccccc12)C(=O)N[C@@H](CCCNC(=N)N)C(=O)N[C@@H](CC(=O)O)C(=O)N[C@@H](Cc1cccc2ccccc12)C(=O)N[C@@H](C)C(=O)N[C@@H](CCCNC(=N)N)C(=O)N[C@@H](CC(N)=O)C(=O)N[C@@H](Cc1cccc2ccccc12)C(=O)N[C@@H](CCSC)C(=O)N[C@@H](CCCNC(=N)N)C(N)=O [Peptide 156] (Lauroyl-RSRWRD[1Nal]ARN[1Nal]MR-NH2): >64 µg/mL

###

Parameter: MIC P. aeruginosa. Scope: all listed entries.
tested on: Pseudomonas aeruginosa ATCC 27853; experiment: MIC, NCCLS M7-A6 broth microdilution (Table 9, no superscript); type: cell-based; settings: ATCC 27853
Residues, ends and D or L forms follow the SMILES beside them. *: point of attachment. Palmitoyl = CCCCCCCCCCCCCCCC(=O)*; Lauroyl = CCCCCCCCCCCC(=O)*
outcome-measure: MIC P. aeruginosa (µg/mL)

1. CCCCCCCCCCCCCCCC(=O)NCCCC[C@H](NC(=O)[C@H](CCCNC(=N)N)NC(=O)[C@H](CC(C)C)NC(=O)[C@H](Cc1ccccc1)NC(=O)[C@H](CC(N)=O)NC(=O)[C@H](CCCNC(=N)N)NC(=O)[C@H](C)NC(=O)[C@@H](NC(=O)[C@H](CC(=O)O)NC(=O)[C@H](CCCNC(=N)N)NC(=O)[C@H](Cc1c[nH]c2ccccc12)NC(=O)[C@H](CCCNC(=N)N)NC(=O)[C@H](CO)NC(=O)[C@@H](N)CCCNC(=N)N)C(C)C)C(N)=O [Peptide 182, H2N-RSRWRDVARNFLRK(Palmitoyl)-NH2] (H-RSRWRDVARNFLRK(Palmitoyl)-NH2): 64
2. CCCCCCCCCCCC(=O)N[C@@H](CCCNC(=N)N)C(=O)N[C@@H](CO)C(=O)N[C@@H](CCCNC(=N)N)C(=O)N[C@@H](Cc1c[nH]c2ccccc12)C(=O)N[C@@H](CCCNC(=N)N)C(=O)N[C@@H](CC(=O)O)C(=O)N[C@@H](Cc1c[nH]c2ccccc12)C(=O)N[C@@H](C)C(=O)N[C@@H](CCCNC(=N)N)C(=O)N[C@@H](CC(N)=O)C(=O)N[C@@H](Cc1c[nH]c2ccccc12)C(=O)N[C@@H](CCSC)C(=O)N[C@@H](CCCNC(=N)N)C(N)=O [Peptide 143, Lauryl-RSRWRDWARNWMR-NH2] (Lauroyl-RSRWRDWARNWMR-NH2): 16

###

tested on: Propionibacterium acnes ATCC 6919; test: MIC, agar dilution method NCCLS M11-A6, Brucella agar, anaerobic (Table 9, superscript c); assay type: cell-based; settings: ATCC 6919
Non-standard residues stand in square brackets, D forms with d. Residues, ends and D or L forms follow the SMILES beside them. *: point of attachment. Lauroyl = CCCCCCCCCCCC(=O)*
outcome-measure: MIC P. acnes (c ug/mL)

1. CCCCCCCCCCCC(=O)N[C@H](CCCNC(=N)N)C(=O)N[C@H](CO)C(=O)N[C@H](CCCNC(=N)N)C(=O)N[C@H](Cc1c[nH]c2ccccc12)C(=O)N[C@H](CCCNC(=N)N)C(=O)N[C@H](CCC(=O)O)C(=O)N[C@@H](C(=O)N[C@H](C)C(=O)N[C@H](CCCNC(=N)N)C(=O)N[C@H](CC(N)=O)C(=O)N[C@H](Cc1ccccc1)C(=O)N[C@H](CC(C)C)C(=O)N[C@H](CCCNC(=N)N)C(N)=O)C(C)C [Peptide 221, Lauryl-rsrwrevarnflr-NH2] (Lauroyl-[dR][dS][dR][dW][dR][dE][dV][dA][dR][dN][dF][dL][dR]-NH2): 32
2. CCCCCCCCCCCC(=O)N[C@H](CCCNC(=N)N)C(=O)N[C@H](C)C(=O)N[C@H](CCCNC(=N)N)C(=O)N[C@H](Cc1c[nH]c2ccccc12)C(=O)N[C@H](CCCNC(=N)N)C(=O)N[C@H](CC(=O)O)C(=O)N[C@@H](C(=O)N[C@H](C)C(=O)N[C@H](CCCNC(=N)N)C(=O)N[C@H](CC(N)=O)C(=O)N[C@H](Cc1ccccc1)C(=O)N[C@H](CCSC)C(=O)N[C@H](CCCNC(=N)N)C(N)=O)C(C)C [Peptide 237, Lauryl-rarwrdvarnfmr-NH2] (Lauroyl-[dR][dA][dR][dW][dR][dD][dV][dA][dR][dN][dF][dM][dR]-NH2): 16
3. CCCCCCCCCCCC(=O)NCCCC[C@H](NC(=O)[C@H](CCCNC(=N)N)NC(=O)[C@H](CCSC)NC(=O)[C@H](Cc1ccccc1)NC(=O)[C@H](CC(N)=O)NC(=O)[C@H](CCCNC(=N)N)NC(=O)[C@H](C)NC(=O)[C@@H](NC(=O)[C@H](CC(=O)O)NC(=O)[C@H](CCCNC(=N)N)NC(=O)[C@H](Cc1c[nH]c2ccccc12)NC(=O)[C@H](CCCNC(=N)N)NC(=O)[C@H](CO)NC(=O)[C@@H](N)CCCNC(=N)N)C(C)C)C(N)=O [Peptide 186, H2N-RSRWRDVARNFMRK(Lauryl)-NH2] (H-RSRWRDVARNFMRK(Lauroyl)-NH2): 16
